Can you tell me pIC50 for the items I'm about to list?
Tested on: human TNBC cell line MDA-MB-231
Assay: CCK-8 antiproliferative assay, MDA-MB-231
Format: cell-based
Conditions: Homo sapiens, MDA-MB-231, 48 h, read-out: IC50 MDA-MB-231
One number for each entry, as −log10 of the molar value.

Molecule: COC1=CC2[C@H]3Cc4ccc(OC)c(OC(=O)c5ccccc5C(=O)OCCCCCCOc5no[n+]([O-])c5S(=O)(=O)c5ccccc5)c4[C@@]2(CCN3C)CC1=O (stereo partly drawn)
Numeric Result: 5.74
--
Molecule: COC1=CC2[C@H]3Cc4ccc(OC)c(OC(=O)c5ccccc5C(=O)OCCCOc5no[n+]([O-])c5S(=O)(=O)c5ccccc5)c4[C@@]2(CCN3C)CC1=O (stereo partly drawn)
Numeric Result: 4.73

Consider the additional molecule presented here.
Given COC1=CC2[C@H]3Cc4ccc(OC)c(OC(=O)CCCC(=O)OCCOc5no[n+]([O-])c5S(=O)(=O)c5ccccc5)c4[C@@]2(CCN3C)CC1=O (stereo partly drawn) , state its recorded pIC50.
4.53

---

Test system: human TNBC cell line MDA-MB-231
Assay: CCK-8 antiproliferative assay, MDA-MB-231
Format: cell-based
Settings: Homo sapiens, MDA-MB-231, 48 h, read-out: IC50 MDA-MB-231
Threshold-based label: IC50 under 3000 nM gives true, IC50 not under 3000 nM gives false.

Compound: COC1=CC2[C@H]3Cc4ccc(OC)c(OC(=O)CCCC(=O)OCCCCOc5no[n+]([O-])c5S(=O)(=O)c5ccccc5)c4[C@@]2(CCN3C)CC1=O (some centres unmarked) [7Cb]
Assigned Category: true
--
Compound: COC1=CC2[C@H]3Cc4ccc(OC)c(OC(=O)CCC(=O)OCCOc5no[n+]([O-])c5S(=O)(=O)c5ccccc5)c4[C@@]2(CCN3C)CC1=O (some centres unmarked) [7Aa]
Assigned Category: false
--
Compound: COC1=CC2[C@H]3Cc4ccc(OC)c(OC(=O)CCCC(=O)OCCCOc5no[n+]([O-])c5S(=O)(=O)c5ccccc5)c4[C@@]2(CCN3C)CC1=O (some centres unmarked) [7Bb]
Assigned Category: false
--
Compound: COC1=CC2[C@H]3Cc4ccc(OC)c(OC(=O)CCCC(=O)OCCCCCOc5no[n+]([O-])c5S(=O)(=O)c5ccccc5)c4[C@@]2(CCN3C)CC1=O (some centres unmarked) [7Db]
Assigned Category: false
--
Compound: COC1=CC2[C@H]3Cc4ccc(OC)c(OC(=O)c5ccccc5C(=O)OCCCCOc5no[n+]([O-])c5S(=O)(=O)c5ccccc5)c4[C@@]2(CCN3C)CC1=O (some centres unmarked) [7Cc]
Assigned Category: true
--
Compound: COC1=CC2[C@H]3Cc4ccc(OC)c(OC(=O)CCC(=O)OCCCCCOc5no[n+]([O-])c5S(=O)(=O)c5ccccc5)c4[C@@]2(CCN3C)CC1=O (some centres unmarked) [7Da]
Assigned Category: true
--
Compound: COC1=CC2[C@H]3Cc4ccc(OC)c(OC(=O)c5ccccc5C(=O)OCCOc5no[n+]([O-])c5S(=O)(=O)c5ccccc5)c4[C@@]2(CCN3C)CC1=O (some centres unmarked) [7Ac]
Assigned Category: true
--
Compound: COC1=CC2[C@H]3Cc4ccc(OC)c(OC(=O)CCC(=O)OCCCCCCOc5no[n+]([O-])c5S(=O)(=O)c5ccccc5)c4[C@@]2(CCN3C)CC1=O (some centres unmarked) [7Ea]
Assigned Category: false
--
Compound: COC1=CC2[C@H]3Cc4ccc(OC)c(OC(=O)c5ccccc5C(=O)OCCCCCOc5no[n+]([O-])c5S(=O)(=O)c5ccccc5)c4[C@@]2(CCN3C)CC1=O (some centres unmarked) [7Dc]
Assigned Category: true
--
Compound: COC1=CC2[C@H]3Cc4ccc(OC)c(OC(=O)CCC(=O)OCCCCOc5no[n+]([O-])c5S(=O)(=O)c5ccccc5)c4[C@@]2(CCN3C)CC1=O (some centres unmarked) [7Ca]
Assigned Category: true

// next entry
Say whether its IC50 is strictly beneath 3000 nM. Entry: COC1=CC2[C@H]3Cc4ccc(OC)c(OC(=O)CCCC(=O)OCCCCCCOc5no[n+]([O-])c5S(=O)(=O)c5ccccc5)c4[C@@]2(CCN3C)CC1=O (some centres unmarked) [7Eb]
false
